- Test description: in vivo
- Stated conditions: rat, po, fasted male rats, deaths for 7 days, Weil's method
- Experimental: Male rats weighing 70-210 g (3-5 rats/group) were fasted overnight and administered orally with the test compound suspended in 5% gum arabic solution. LD50 was calculated from the number of death for 7 days using the Weil's method.
Entries annotated with measured LD50 at 168 h

{"Structure": "CCC(C)(C)N=C(NC#N)Nc1cc(Cl)cc(Cl)c1", "LD50 at 168 h": "> 2000 mg/kg"}
{"Structure": "CC(C)(C)NC(=Nc1cc(Cl)cc(Cl)c1)NC#N", "LD50 at 168 h": "> 2000 mg/kg"}
{"Structure": "CCC(C)(CC)N=C(NC#N)Nc1cc(Cl)cc(Cl)c1", "LD50 at 168 h": "> 2000 mg/kg"}
{"Structure": "CCC(C)(C)N=C(NC#N)Nc1cc(F)cc(Br)c1", "LD50 at 168 h": "> 2000 mg/kg"}

The values you see were collected from patent US5087640A.
